Every entry's value here was drawn from ChEMBL document CHEMBL4020767.

# System Under Test: Mushroom tyrosinase (Agaricus bisporus, UniProt O42713+Q00024+C7FF04+C7FF05)
# Test Description: Inhibition of mushroom tyrosinase […] measured at 60 secs interval for 25 times
Hi! Could you tag entries with IC50 below 20 µM as satisfied, and those at or above as not satisfied? Much appreciated.

| Chemical String | System Under Test | Class |
| --- | --- | --- |
| COc1ccc(-c2ccc(C(=O)O)cc2)cc1 | Mushroom tyrosinase (Agaricus bisporus, UniProt O42713+Q00024+C7FF04+C7FF05) | satisfied |
| COc1ccc(-c2ccccc2C(=O)O)cc1 | Mushroom tyrosinase (Agaricus bisporus, UniProt O42713+Q00024+C7FF04+C7FF05) | not satisfied |
| O=C(O)c1cccc(-c2ccc(O)cc2)c1 | Mushroom tyrosinase (Agaricus bisporus, UniProt O42713+Q00024+C7FF04+C7FF05) | satisfied |
| O=C(O)c1ccc(-c2ccc(O)cc2)cc1 | Mushroom tyrosinase (Agaricus bisporus, UniProt O42713+Q00024+C7FF04+C7FF05) | satisfied |
| O=C(O)c1ccccc1-c1ccccc1 | Mushroom tyrosinase (Agaricus bisporus, UniProt O42713+Q00024+C7FF04+C7FF05) | not satisfied |
| O=C(O)c1cccc(-c2ccccc2)c1 | Mushroom tyrosinase (Agaricus bisporus, UniProt O42713+Q00024+C7FF04+C7FF05) | satisfied |
| O=C(O)c1ccccc1-c1ccc(O)cc1 | Mushroom tyrosinase (Agaricus bisporus, UniProt O42713+Q00024+C7FF04+C7FF05) | not satisfied |
| COc1ccc(-c2cccc(C(=O)O)c2)cc1 | Mushroom tyrosinase (Agaricus bisporus, UniProt O42713+Q00024+C7FF04+C7FF05) | satisfied |
| O=C(O)c1ccc(-c2ccccc2)cc1 | Mushroom tyrosinase (Agaricus bisporus, UniProt O42713+Q00024+C7FF04+C7FF05) | not satisfied |
